assay: Stability in simulated intestinal fluid at pH 6.8 assessed as relative difference measured after 30 mins in presence of pancreatin by HPLC analysis; assay type: ADME; conditions: simulated gi fluid, pH 6.8, 0.5 h
Rule: measured fold change (FC) below 20% gets met; anything equal to or greater than 20% gets not met.

Some solved cases for reference:
COc1ccc(/C=C/C(=O)NCCCCNC(=O)CCCCC2CCSS2)cc1OC (stereo not given); met
O=C(CCCCC1CCSS1)NCCNC(=O)Cc1ccc(O)c(O)c1 (stereo not given); met
O=C(CCCCC1CCSS1)NCCCNC(=O)Cc1ccc(O)c(O)c1 (stereo not given); not met
O=C(CCCCC1CCSS1)NCCOC(=O)Cc1ccc(O)c(O)c1 (stereo not given); not met
COc1cc(/C=C/C(=O)NCCNC(=O)CCCCC2CCSS2)ccc1O (stereo not given); met

## Task Answer whether the compound COc1ccc(CC(=O)NCCCNC(=O)CCCCC2CCSS2)cc1OC (stereo not given) has fold change (FC) strictly less than 20%
## Result met

## Task Answer whether the compound COc1ccc(/C=C/C(=O)OCCOCCNC(=O)CCCCC2CCSS2)cc1OC (stereo not given) has fold change (FC) strictly less than 20%
## Result not met

## Task Answer whether the compound O=C(CCCCC1CCSS1)NCCOCCOC(=O)Cc1ccc(O)c(O)c1 (stereo not given) has fold change (FC) strictly less than 20%
## Result not met

## Task Answer whether the compound COc1cc(/C=C/C(=O)NCCCNC(=O)CCCCC2CCSS2)ccc1O (stereo not given) has fold change (FC) strictly less than 20%
## Result met
